TESTED_SYSTEM: DNA gyrase (Staphylococcus aureus, UniProt P0A0K8+P20831)
Sequence (P0A0K8 whole entry): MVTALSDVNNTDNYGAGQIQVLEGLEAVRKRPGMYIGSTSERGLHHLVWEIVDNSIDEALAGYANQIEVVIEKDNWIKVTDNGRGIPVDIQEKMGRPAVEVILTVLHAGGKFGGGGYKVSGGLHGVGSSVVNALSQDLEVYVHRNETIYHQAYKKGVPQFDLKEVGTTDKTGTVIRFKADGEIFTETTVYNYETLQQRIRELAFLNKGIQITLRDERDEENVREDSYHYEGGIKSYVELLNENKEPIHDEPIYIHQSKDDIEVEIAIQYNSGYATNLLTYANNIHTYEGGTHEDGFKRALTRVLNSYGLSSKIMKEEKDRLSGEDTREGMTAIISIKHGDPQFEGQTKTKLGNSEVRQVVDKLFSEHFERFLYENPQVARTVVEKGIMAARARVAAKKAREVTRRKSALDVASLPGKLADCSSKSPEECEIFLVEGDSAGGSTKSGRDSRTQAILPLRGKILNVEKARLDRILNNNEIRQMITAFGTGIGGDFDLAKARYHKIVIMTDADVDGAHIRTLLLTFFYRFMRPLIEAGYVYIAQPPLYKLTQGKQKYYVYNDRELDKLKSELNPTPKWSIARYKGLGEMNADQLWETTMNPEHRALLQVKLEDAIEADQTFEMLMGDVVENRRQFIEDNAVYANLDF
Sequence (P20831 whole entry): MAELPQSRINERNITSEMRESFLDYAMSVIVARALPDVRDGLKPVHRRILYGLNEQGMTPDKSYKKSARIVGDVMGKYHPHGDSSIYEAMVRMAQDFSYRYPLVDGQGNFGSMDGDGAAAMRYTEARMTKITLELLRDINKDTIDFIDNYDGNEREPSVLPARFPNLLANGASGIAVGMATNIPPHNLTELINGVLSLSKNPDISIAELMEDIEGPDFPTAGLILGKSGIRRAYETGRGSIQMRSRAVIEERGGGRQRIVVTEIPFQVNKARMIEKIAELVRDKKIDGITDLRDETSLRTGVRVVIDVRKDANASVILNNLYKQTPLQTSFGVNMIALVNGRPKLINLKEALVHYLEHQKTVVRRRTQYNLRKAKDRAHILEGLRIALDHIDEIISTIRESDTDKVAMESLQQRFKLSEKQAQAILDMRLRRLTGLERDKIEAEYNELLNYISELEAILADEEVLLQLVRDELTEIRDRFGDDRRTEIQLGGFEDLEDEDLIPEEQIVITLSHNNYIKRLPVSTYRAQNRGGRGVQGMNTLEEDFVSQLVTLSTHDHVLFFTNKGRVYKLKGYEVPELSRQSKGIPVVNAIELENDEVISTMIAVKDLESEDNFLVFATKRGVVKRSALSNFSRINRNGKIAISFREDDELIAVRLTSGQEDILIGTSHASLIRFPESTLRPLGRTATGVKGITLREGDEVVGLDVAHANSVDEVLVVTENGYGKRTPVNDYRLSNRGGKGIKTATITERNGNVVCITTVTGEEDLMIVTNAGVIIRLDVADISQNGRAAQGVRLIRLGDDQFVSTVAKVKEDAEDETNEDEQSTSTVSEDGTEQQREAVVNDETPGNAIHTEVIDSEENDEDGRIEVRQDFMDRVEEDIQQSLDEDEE
TEST_DESCRIPTION: Inhibition of Staphylococcus aureus DNA gyrase supercoiling activity using pBR322 DNA as substrate after 30 mins by ethidium bromide staining based agarose gel electrophoresis method
PROPERTY_LABEL: IC50 (µM)
Response body: numeric value in µM, unit text excluded.

May I ask what IC50 has been recorded for Fc1ccc(-n2nnnc2NCc2ccco2)cc1Cl ? 3.06

###

Tested on: A549
TEST_DESCRIPTION: Cytotoxicity activity against human A549 cells assessed as reduction in cell viability after 72 hrs by MTT assay
Format: cell-based
CONDITION: A549, 72 h
PROPERTY_LABEL: IC50 (µM)
Response body: numeric value in µM, unit text excluded.

>  <SMILES_STRING>
Fc1ccc(-n2nnnc2Nn2cnnc2)cc1

>  <IC50 (µM)>
80

$$$$
>  <SMILES_STRING>
Fc1ccc(-n2nnnc2NCc2ccco2)cc1Cl

>  <IC50 (µM)>
80

$$$$
>  <SMILES_STRING>
COc1cccc2c1C(=O)c1c(O)c3c(c(O)c1C2=O)C[C@@](O)(C(=O)CO)C[C@@H]3O[C@H]1C[C@H](N)[C@H](O)[C@H](C)O1

>  <IC50 (µM)>
0.63

$$$$
>  <SMILES_STRING>
Cc1ccc(-n2nnnc2NCc2ccco2)cc1Cl

>  <IC50 (µM)>
78

$$$$

Field: next compound
May I ask what IC50 has been recorded for O=[N+]([O-])c1ccc(-n2nnnc2Nn2cnnc2)cc1 ? 60

###

Test system: A549
TEST_DESCRIPTION: Cytotoxicity activity against human A549 cells assessed as reduction in cell viability after 72 hrs by MTT assay
Type: cell-based
CONDITION: A549, 72 h
PROPERTY_LABEL: pIC50
// scale note: pIC50 = -log10(conc_M); give the bare number

May I ask what pIC50 has been recorded for Fc1ccc(-n2nnnc2Nc2nccs2)cc1Cl ? 4.22

Then this compound: Fc1ccc(-n2nnnc2Nn2cnnc2)cc1Cl 4.22

Then this compound: Brc1ccc(-n2nnnc2Nn2cnnc2)cc1 4.21

Then this compound: FC(F)(F)c1ccc(-n2nnnc2Nc2nccs2)cc1 4.12

###

Test system: Staphylococcus aureus
TEST_DESCRIPTION: Antibacterial activity against Staphylococcus aureus ATCC 6538 after 18 hrs by CLSI disc diffusion method
Type: functional
CONDITION: ATCC 6538, 18 h
PROPERTY_LABEL: MIC

Examples with their reported MIC follow.
>  <SMILES_STRING>
Fc1ccc(-n2nnnc2Nn2cnnc2)cc1

>  <MIC>
33 µM

$$$$
>  <SMILES_STRING>
Fc1ccc(-n2nnnc2Nn2cnnc2)cc1Cl

>  <MIC>
14 µM

$$$$
>  <SMILES_STRING>
O=[N+]([O-])c1cc(-n2nnnc2Nc2nc[nH]n2)ccc1Cl

>  <MIC>
208 µM

$$$$
>  <SMILES_STRING>
Brc1ccc(-n2nnnc2Nn2cnnc2)cc1

>  <MIC>
52 µM

$$$$

May I ask what MIC has been recorded for Clc1ccc(-n2nnnc2Nc2nccs2)cc1Cl ? 51 µM

Then this compound: FC(F)(F)c1ccc(-n2nnnc2Nc2nccs2)cc1 51 µM

Then this compound: O=C(O)n1nnnc1NCCc1c[nH]c2ccccc12 15 µM

Then this compound: CCn1nnnc1NCCc1c[nH]c2ccccc12 > 999 µM

Then this compound: Fc1ccc(-n2nnnc2NCc2ccco2)cc1Cl 7 µM

Then this compound: Fc1ccc(-n2nnnc2Nc2nccs2)cc1Cl 108 µM

Then this compound: O=[N+]([O-])c1ccc(-n2nnnc2Nn2cnnc2)cc1 7 µM

Then this compound: Cc1ccc(-n2nnnc2NCc2ccco2)cc1Cl 7 µM

Then this compound: O=C(O)n1nnnc1Nn1cnnc1 20 µM

Then this compound: Fc1ccc(-n2nnnc2NCCc2c[nH]c3ccccc23)cc1 25 µM

###

Tested on: Enterococcus hirae
TEST_DESCRIPTION: Antibacterial activity against Enterococcus hirae ATCC 10541 after 18 hrs by CLSI disc diffusion method
Assay type: functional
CONDITION: ATCC 10541, 18 h
Each entry below carries its reported MIC.
Response body: numeric value in µM, unit text excluded.

Examples with their reported MIC follow.
>  <SMILES_STRING>
Clc1ccc(-n2nnnc2Nc2nccs2)cc1Cl

>  <MIC [µM]>
205

$$$$
>  <SMILES_STRING>
O=[N+]([O-])c1ccc(-n2nnnc2Nn2cnnc2)cc1

>  <MIC [µM]>
29

$$$$
>  <SMILES_STRING>
Fc1ccc(-n2nnnc2NCCc2c[nH]c3ccccc23)cc1

>  <MIC [µM]>
25

$$$$

Identify the measured MIC of FC(F)(F)c1ccc(-n2nnnc2Nc2nccs2)cc1 for Enterococcus hirae. 51

Then this compound: CCn1nnnc1NCCc1c[nH]c2ccccc12 999

Then this compound: Fc1ccc(-n2nnnc2NCc2ccco2)cc1Cl 14

###

TEST_DESCRIPTION: Selectivity index, ratio of IC50 for human HaCaT cells to MIC for Enterococcus hirae ATCC 10541
Type: toxicity
CONDITION: read-out: Selectivity Index
PROPERTY_LABEL: selectivity ratio

Examples with their reported selectivity ratio follow.
>  <SMILES_STRING>
Fc1ccc(-n2nnnc2Nc2nccs2)cc1Cl

>  <selectivity ratio>
2.22

$$$$
>  <SMILES_STRING>
Cc1ccc(-n2nnnc2NCc2ccco2)cc1Cl

>  <selectivity ratio>
2.85

$$$$
>  <SMILES_STRING>
Brc1ccc(-n2nnnc2Nn2cnnc2)cc1

>  <selectivity ratio>
1.25

$$$$
>  <SMILES_STRING>
Fc1ccc(-n2nnnc2Nn2cnnc2)cc1Cl

>  <selectivity ratio>
2.13

$$$$
>  <SMILES_STRING>
FC(F)(F)c1ccc(-n2nnnc2Nc2nccs2)cc1

>  <selectivity ratio>
1.56

$$$$

May I ask what selectivity ratio has been recorded for O=[N+]([O-])c1ccc(-n2nnnc2Nn2cnnc2)cc1 ? 2.24

Then this molecule: Fc1ccc(-n2nnnc2NCc2ccco2)cc1Cl 6

Then this molecule: Fc1ccc(-n2nnnc2Nn2cnnc2)cc1 2.89

###

Each entry below carries its reported MIC.
Tested on: Escherichia coli
TEST_DESCRIPTION: Antibacterial activity against Escherichia coli ATCC 10538 after 18 hrs by CLSI disc diffusion method
Format: functional
CONDITION: ATCC 10538, 18 h
Response body: numeric value in µM, unit text excluded.

Examples with their reported MIC follow.
>  <SMILES_STRING>
FC(F)(F)c1ccc(-n2nnnc2Nc2nccs2)cc1

>  <UNIT_OF_MEASUREMENT>
µM

>  <OBSERVED_VALUE>
411

$$$$
>  <SMILES_STRING>
O=[N+]([O-])c1ccc(-n2nnnc2Nn2cnnc2)cc1

>  <UNIT_OF_MEASUREMENT>
µM

>  <OBSERVED_VALUE>
117

$$$$
>  <SMILES_STRING>
O=[N+]([O-])c1cc(-n2nnnc2Nc2nc[nH]n2)ccc1Cl

>  <UNIT_OF_MEASUREMENT>
µM

>  <OBSERVED_VALUE>
417

$$$$

Identify the measured MIC of Fc1ccc(-n2nnnc2Nn2cnnc2)cc1 for Escherichia coli. 16

Then this compound: Clc1ccc(-n2nnnc2Nc2nccs2)cc1Cl 821

Then this compound: Brc1ccc(-n2nnnc2Nn2cnnc2)cc1 52

Then this compound: CCn1nnnc1NCCc1c[nH]c2ccccc12 999

###

Test system: HaCaT
TEST_DESCRIPTION: Cytotoxicity activity against human HaCaT cells assessed as reduction in cell viability after 72 hrs by MTT assay
Assay type: cell-based
PROPERTY_LABEL: log10(IC50) (log10 of the value in µM)
Scale: decimal log of IC50, IC50 in µM.

May I ask what log10(IC50) has been recorded for Cc1ccc(-n2nnnc2NCc2ccco2)cc1Cl ? 1.90

Then this compound: Fc1ccc(-n2nnnc2NCc2ccco2)cc1Cl 1.92

Then this compound: Fc1ccc(-n2nnnc2Nn2cnnc2)cc1Cl 1.79

###

Each entry below carries its reported selectivity ratio.
TEST_DESCRIPTION: Selectivity index, ratio of IC50 for human HaCaT cells to MIC for Bacillus subtilis ATCC 6633
Assay type: toxicity
CONDITION: read-out: Selectivity Index
Reply briefly: the number, and no unit.

>  <SMILES_STRING>
Brc1ccc(-n2nnnc2Nn2cnnc2)cc1

>  <selectivity ratio>
2.5

$$$$
>  <SMILES_STRING>
FC(F)(F)c1ccc(-n2nnnc2Nc2nccs2)cc1

>  <selectivity ratio>
3.07

$$$$
>  <SMILES_STRING>
Fc1ccc(-n2nnnc2NCc2ccco2)cc1Cl

>  <selectivity ratio>
28

$$$$
>  <SMILES_STRING>
Fc1ccc(-n2nnnc2Nn2cnnc2)cc1

>  <selectivity ratio>
1.29

$$$$

May I ask what selectivity ratio has been recorded for Cc1ccc(-n2nnnc2NCc2ccco2)cc1Cl ? 11.4

Then this compound: Fc1ccc(-n2nnnc2Nn2cnnc2)cc1Cl 1.08

Then this compound: Fc1ccc(-n2nnnc2Nc2nccs2)cc1Cl 4.28

Then this compound: O=[N+]([O-])c1ccc(-n2nnnc2Nn2cnnc2)cc1 2.24
